- study system: hMC3R (Homo sapiens)
- test details: Competition binding assay with [125I]-NDP-α-MSH, whole HEK293 cells expressing hMC3R
- Parameters: expressed in transfected cells; host or cells: HEK293
- assay setup: Table 4; 50% specific binding (N = 4); NB = 0% of 125I-NDP-α-MSH displacement observed at 10 μM; read-out: MC3R IC50
test readout: pIC50
Scale for pIC50: -log10 of concentration given in mol/L; no unit attached.

[ask] Recorded pIC50 of H-YVLGPFRWDRFG-NH2 [SEQ ID NO. 2] , please.
[reply] 6.78

[ask] Recorded pIC50 of H-YVLGPFLFDRFG-NH2 [SEQ ID NO. 7] , please.
[reply] 5.85

[ask] Recorded pIC50 of H-YVLGHFLWDRFG-NH2 [SEQ ID NO. 4] , please.
[reply] 5.73

[ask] Recorded pIC50 of H-YVLGPFRFDRFG-NH2 [SEQ ID NO. 3] , please.
[reply] 5.90

[ask] Recorded pIC50 of H-YVLGPFLWDRFG-NH2 [SEQ ID NO. 6] , please.
[reply] 7.40

###

- study system: hMC5R (Homo sapiens, UniProt P33032)
- Sequence (P33032 whole entry): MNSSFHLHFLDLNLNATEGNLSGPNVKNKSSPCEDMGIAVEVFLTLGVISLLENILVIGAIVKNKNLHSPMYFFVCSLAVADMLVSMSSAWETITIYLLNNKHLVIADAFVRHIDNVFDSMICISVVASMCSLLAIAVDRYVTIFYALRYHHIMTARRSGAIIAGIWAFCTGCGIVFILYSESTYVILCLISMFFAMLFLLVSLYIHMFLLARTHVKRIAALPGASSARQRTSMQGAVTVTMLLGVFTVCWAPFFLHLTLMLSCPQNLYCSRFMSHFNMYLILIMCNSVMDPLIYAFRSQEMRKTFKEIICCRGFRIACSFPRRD
- test details: Competition binding assay with [125I]-NDP-α-MSH, whole HEK293 cells expressing hMC5R
- Set-up: expressed in transfected cells; host or cells: HEK293
- assay setup: Table 2; concentration of peptide at 50% specific binding (N = 4); tested 10^-10 to 10^-5 M; read-out: hMC5R IC50
test readout: pIC50
Scale for pIC50: -log10 of concentration given in mol/L; no unit attached.

[ask] Recorded pIC50 of H-YVMGPFRWDRFG-NH2 [SEQ ID NO. 10] , please.
[reply] 6.47

###

- study system: hMC1R (Homo sapiens, UniProt Q01726)
- Construct: expressed in transfected cells; host or cells: HEK293
- Sequence (Q01726 whole entry): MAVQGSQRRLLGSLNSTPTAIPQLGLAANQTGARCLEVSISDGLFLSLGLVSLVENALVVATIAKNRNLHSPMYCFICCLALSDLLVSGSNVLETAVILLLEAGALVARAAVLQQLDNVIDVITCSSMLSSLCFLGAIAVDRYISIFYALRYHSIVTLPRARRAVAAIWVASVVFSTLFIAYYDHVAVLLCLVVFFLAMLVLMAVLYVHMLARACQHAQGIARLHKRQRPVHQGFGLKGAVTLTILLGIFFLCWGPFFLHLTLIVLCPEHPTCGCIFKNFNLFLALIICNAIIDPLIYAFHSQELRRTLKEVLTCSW
- test details: Competition binding assay with [125I]-NDP-α-MSH, whole HEK293 cells expressing hMC1R
- assay setup: Table 4; 50% specific binding (N = 4); NB = 0% of 125I-NDP-α-MSH displacement observed at 10 μM; read-out: MC1R IC50
test readout: IC50 (nM)
Numeric answer only, unit nM assumed.

[ask] Recorded IC50 of H-YVLGHFLWDRFG-NH2 [SEQ ID NO. 4] , please.
[reply] 1480

[ask] Recorded IC50 of H-YVLGPFLFDRFG-NH2 [SEQ ID NO. 7] , please.
[reply] 11

[ask] Recorded IC50 of H-YVLGHFLFDRFG-NH2 [SEQ ID NO. 5] , please.
[reply] 22

###

- study system: hMC3R (Homo sapiens, UniProt P41968)
- Sequence (P41968 whole entry): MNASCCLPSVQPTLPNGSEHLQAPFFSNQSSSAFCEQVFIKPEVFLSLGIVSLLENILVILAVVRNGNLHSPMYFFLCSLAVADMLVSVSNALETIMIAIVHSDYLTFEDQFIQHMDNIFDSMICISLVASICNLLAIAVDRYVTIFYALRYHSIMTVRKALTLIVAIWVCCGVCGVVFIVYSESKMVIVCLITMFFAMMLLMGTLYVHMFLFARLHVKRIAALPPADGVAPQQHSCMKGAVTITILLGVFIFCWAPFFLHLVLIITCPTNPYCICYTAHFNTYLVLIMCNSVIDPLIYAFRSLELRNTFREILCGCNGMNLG
- test details: cAMP assay (intracellular cAMP accumulation) at hMC3R
- Type: cell-based
- Parameters: expressed in transfected cells
- assay setup: Table 2; 50% maximal intracellular cAMP accumulation (N = 4); tested 10^-10 to 10^-5 M
test readout: pEC50
Scale for pEC50: -log10 of concentration given in mol/L; no unit attached.

[ask] Recorded pEC50 of H-YVMGPFRWDRFG-NH2 [SEQ ID NO. 10] , please.
[reply] 9.48

###

- study system: hMC4R (Homo sapiens, UniProt P32245)
- Sequence (P32245 whole entry): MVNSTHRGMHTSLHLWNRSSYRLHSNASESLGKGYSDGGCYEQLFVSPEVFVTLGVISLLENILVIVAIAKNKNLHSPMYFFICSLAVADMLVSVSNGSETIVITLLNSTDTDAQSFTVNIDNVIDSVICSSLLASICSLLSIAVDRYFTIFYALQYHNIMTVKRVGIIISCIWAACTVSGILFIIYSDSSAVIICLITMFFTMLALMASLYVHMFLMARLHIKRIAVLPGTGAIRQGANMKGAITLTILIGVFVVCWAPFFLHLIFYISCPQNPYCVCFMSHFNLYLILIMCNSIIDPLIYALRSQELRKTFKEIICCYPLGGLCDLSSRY
- test details: Competition binding assay with [125I]-NDP-α-MSH, whole HEK293 cells expressing hMC4R
- Parameters: expressed in transfected cells; host or cells: HEK293
- assay setup: Table 4; 50% specific binding (N = 4); NB = 0% of 125I-NDP-α-MSH displacement observed at 10 μM; read-out: MC4R IC50
test readout: IC50 (µM)
Numeric answer only, unit µM assumed.

[ask] Recorded IC50 of H-YVLGPFLFDRFG-NH2 [SEQ ID NO. 7] , please.
[reply] 0.058

[ask] Recorded IC50 of H-YVLGPFLWDRFG-NH2 [SEQ ID NO. 6] , please.
[reply] 0.013

[ask] Recorded IC50 of H-YVLGPFRWDRFG-NH2 [SEQ ID NO. 2] , please.
[reply] 0.076

[ask] Recorded IC50 of H-YVLGHFLFDRFG-NH2 [SEQ ID NO. 5] , please.
[reply] 3.21

###

- test details: in vitro
- Type: in vitro ADME
test readout: half-life (min)
Numeric answer only, unit min assumed.

[ask] Recorded half-life of `CCCC[C@H](NC(=O)[C@@H](NC(=O)[C@@H](N)Cc1ccc(O)cc1)C(C)C)C(=O)NCC(=O)N[C@@H](Cc1cnc[nH]1)C(=O)N[C@H](Cc1ccc2ccccc2c1)C(=O)N[C@@H](CCCN=C(N)N)C(=O)N[C@H](Cc1c[nH]c2ccccc12)C(=O)N[C@@H](CC(=O)O)C(=O)N[C@@H](CCCN=C(N)N)C(=O)N[C@@H](Cc1ccccc1)C(=O)NCC(N)=O` , please.
[reply] 52

###

- study system: hMC5R (Homo sapiens)
- test details: Competition binding assay with [125I]-NDP-α-MSH, whole HEK293 cells expressing hMC5R
- Parameters: expressed in transfected cells; host or cells: HEK293
- assay setup: Table 4; maximal % of 125I-NDP-α-MSH displacement observed at 10 μM
Could you please report measured MC5R % BE (Percent Binding Efficiency) for the items listed next?
Numeric answer only, unit % assumed.

[ask] Recorded MC5R % BE (Percent Binding Efficiency) of H-YVLGPFLFDRFG-NH2 [SEQ ID NO. 7] , please.
[reply] 34

[ask] Recorded MC5R % BE (Percent Binding Efficiency) of H-YVLGHFLWDRFG-NH2 [SEQ ID NO. 4] , please.
[reply] 57

[ask] Recorded MC5R % BE (Percent Binding Efficiency) of H-YVLGPFLWDRFG-NH2 [SEQ ID NO. 6] , please.
[reply] 32

[ask] Recorded MC5R % BE (Percent Binding Efficiency) of H-YVLGHFLFDRFG-NH2 [SEQ ID NO. 5] , please.
[reply] 0

[ask] Recorded MC5R % BE (Percent Binding Efficiency) of H-YVLGPFRFDRFG-NH2 [SEQ ID NO. 3] , please.
[reply] 0

[ask] Recorded MC5R % BE (Percent Binding Efficiency) of H-YVLGPFRWDRFG-NH2 [SEQ ID NO. 2] , please.
[reply] 100

###

- study system: hMC5R (Homo sapiens, UniProt P33032)
- test details: cAMP assay (intracellular cAMP accumulation) at hMC5R
- Format: cell-based
- Parameters: expressed in transfected cells
- assay setup: Table 2; 50% maximal intracellular cAMP accumulation (N = 4); tested 10^-10 to 10^-5 M
test readout: pEC50
Scale for pEC50: -log10 of concentration given in mol/L; no unit attached.

[ask] What value of pEC50 on hMC5R (Homo sapiens, UniProt P33032) does H-YVMGPFRWDRFG-NH2 [SEQ ID NO. 10] have?
[reply] 7.09

###

- study system: hMC4R (Homo sapiens, UniProt P32245)
- test details: Competition binding assay with [125I]-NDP-α-MSH, whole HEK293 cells expressing hMC4R
- Parameters: expressed in transfected cells; host or cells: HEK293
- assay setup: Table 4; maximal % of 125I-NDP-α-MSH displacement observed at 10 μM
Rule for this label: Criterion met means MC4R % BE (Percent Binding Efficiency) is less than 50%; Criterion not met means MC4R % BE (Percent Binding Efficiency) is at least 50%.

[ask] MC4R % BE (Percent Binding Efficiency) under 50%? Item: H-YVLGHFLFDRFG-NH2 [SEQ ID NO. 5]
[reply] Criterion not met

[ask] MC4R % BE (Percent Binding Efficiency) under 50%? Item: H-YVLGPFRFDRFG-NH2 [SEQ ID NO. 3]
[reply] Criterion met

[ask] MC4R % BE (Percent Binding Efficiency) under 50%? Item: H-YVLGPFRWDRFG-NH2 [SEQ ID NO. 2]
[reply] Criterion not met

[ask] MC4R % BE (Percent Binding Efficiency) under 50%? Item: H-YVLGPFLFDRFG-NH2 [SEQ ID NO. 7]
[reply] Criterion met

[ask] MC4R % BE (Percent Binding Efficiency) under 50%? Item: H-YVLGPFLWDRFG-NH2 [SEQ ID NO. 6]
[reply] Criterion met

[ask] MC4R % BE (Percent Binding Efficiency) under 50%? Item: H-YVLGHFLWDRFG-NH2 [SEQ ID NO. 4]
[reply] Criterion met
